reported_property: melting point

Solved entries:
>>> result("CCOC(=O)[C@H](Cc1ccc(-c2c(OC)cc(COS(C)(=O)=O)cc2OC)cc1)NC(=O)c1c(F)cccc1F")
"125 to 126 °C"
>>> result("CCOCCC(=O)C1CCC2C3CCC4CC(O)CCC4(C)C3C(=O)CC12C (centres undefined)")
"126 to 130 °C"
>>> result("CC(C)c1nc(Sc2ccc(CCC(=O)O)cc2)c(C(=O)O)n1Cc1cc2c(cc1Cl)OCO2")
"198 °C"
>>> result("CCCc1nc(C(O)C(C)C)c(C#N)n1Cc1ccc(-c2ccccc2-c2nnnn2C(c2ccccc2)(c2ccccc2)c2ccccc2)cc1 (centres undefined)")
"154 to 155 °C"
>>> result("N#Cc1cc(NC(=O)c2cc3ccccc3s2)ccc1N1CCN(C2CCOCC2)CC1")
"> 285 °C"
>>> result("CCCC[C@H](NC(=O)CC[C@H](C)CNC(=O)COc1ccccc1)C(=O)CS(=O)Cc1ccco1 (some centres undefined)")
"96 to 99 °C"
>>> result("CC(C)CCNC(=O)c1ccccc1-c1ccccc1CNS(=O)(=O)c1ccc(F)cc1")
"149 °C"
>>> result("N/C(=C1/Sc2ccc(Cl)cc2C1=O)c1ccccc1")
"172 to 173 °C"
>>> result("COCCOc1ccc(/C=C/C(=O)O)c(Oc2ccc(C(F)(F)F)cc2Cl)c1")
"166 °C"
>>> result("CCCCCC(CC(=O)O)c1cc(C(=O)OC)c(OC)cc1OC (centres undefined)")
"106 to 107 °C"

Exercise: Item under review: COc1cccc(C=C2NC(=O)NC2=O)c1OCCc1ccccc1 . Reported melting point?
Key: 199 to 201 °C

Exercise: // lookup melting point for Cn1cnc2nc(-c3ccc(-c4ccccc4)cc3)nn2c1=S
Key: 297 to 299 °C

Exercise: Which value of melting point has been reported for CCOC(=O)c1nnc2n1-c1ccccc1C(c1ccccc1)=NC2 in the records?
Key: 205 to 206 °C

Exercise: Reported melting point for O=C(NCC1(c2ccccc2)CCCCC1)Nc1ccc(F)cc1F : what is it?
Key: 163 to 165 °C

Exercise: Given CCCCc1nnc(SCc2ccc(Cl)cc2)n1Cc1ccc(-c2ccccc2-c2nnn[nH]2)cc1 , state its recorded melting point.
Key: 92 to 93 °C

Exercise: Which value of melting point has been reported for Cc1cccc(-c2[nH]c(C(C)C)nc2-c2cccc(-c3ccc(NC(=O)NN4CCOCC4)cc3)c2)n1 in the records?
Key: 146 to 148 °C

Exercise: What value of melting point has been recorded for this entry: CC(=O)Nc1ccc(N=O)cc1
Key: 179 to 180 °C

Exercise: Which measured melting point value corresponds to Cc1ccc(O)c(C(=O)OCC=Cc2ccccc2)c1 ?
Key: 178 to 179 °C

Exercise: What value of melting point has been reported for the following molecule? COC(=O)c1ccc(O)c(O)c1O
Key: 221 °C

* * *

# key: entry, value: melting point

Exercise: State the recorded melting point for this entry: O=Cc1c[nH]c2c1ccc1c3cc(-c4ccc(OC(F)(F)F)cc4)ccc3[nH]c12
Key: > 250 °C

Exercise: // lookup melting point for O=c1c2c(cc3n1CCCS3(=O)=O)CCCC2
Key: 232 to 233 °C

Exercise: Given CC(=O)OCc1ccc2oc(=O)c(C(=O)Oc3cc(F)ccc3[N+](=O)[O-])cc2c1 , state its recorded melting point.
Key: 157 to 161 °C

Exercise: What value of melting point has been recorded for this entry: [N-]=[N+]=NCCOc1ccc(C(=C(c2ccc(F)cc2)C(F)(F)F)c2ccccc2)cc1
Key: 100 to 110 °C

Exercise: Look up melting point: N#Cc1cnc2cc(Cl)c([N+](=O)[O-])cc2c1Cl
Key: 143 to 153 °C

Exercise: So what's the measured melting point for this one? CC(C)n1c(CCC2C[C@@H](O)CC(=O)O2)c(-c2ccc(F)cc2)c(-c2ccccc2)c1C(=O)Nc1ccc(F)cc1 (stereo not given in full)
Key: 98 to 99 °C

Exercise: May I ask what melting point has been recorded for O=C(O)c1ccc2c(c1)C=C(CCN1CCCC1)CC2 ?
Key: 202 to 203 °C

* * *

reported_property: melting point

Completed entries (count: 5):
>>> result("CS(=O)(=O)c1cnc2c(c1)CCC(c1ccc(Cl)c(Cl)c1)O2 (centres undefined)")
"172 °C"
>>> result("NC(=O)c1nn(-c2ccccc2)c2ccccc12")
"149 °C"
>>> result("COc1ccc(C(C)(C)C)cc1C(=O)c1cc([N+](=O)[O-])ccc1Cl")
"136 to 139 °C"
>>> result("CNC(=O)c1ccc(C=CC(=O)OC)cc1")
"210 °C"
>>> result("S=C1N=c2ccc(OCCN3CCC(Cc4ccc(Cl)cc4)CC3)cc2=N1")
"291 to 293 °C"

Exercise: Could you share which melting point value was measured for CN1CCN(NC(=O)Nc2cccc3c2C(=O)c2c-3n[nH]c2-c2ccc(N(C)C)cc2)CC1 ?
Key: > 300 °C

* * *

reported_property: melting point

>>> result("C/C=C/CC(=O)N[C@H]1CC[C@H](CCN2CCC(c3cccc4c3CCO4)CC2)CC1")
"196 °C"
>>> result("COC(=O)C1=C(C)NC(C)=C(C)C1c1ccccc1 (stereo unspecified)")
"120 °C"
>>> result("CON=C1CCCCC1n1nc(-c2c(-c3ccccc3)nn3ccccc23)ccc1=O (stereo unspecified)")
"85 to 87 °C"

Exercise: Query (compound): Cc1ccc2c(c1)C(C(=O)Nc1c(C(C)C)cc(SC#N)cc1C(C)C)c1ccccc1CO2 (stereo unspecified) ; field requested: melting point
Key: 146 °C

Exercise: Suppose we examine the compound COc1ccc(-c2cc(=O)cc(N3CCOCC3)o2)cc1 ; what melting point value has been reported?
Key: 220 °C

Exercise: Dear colleague, I am looking for the recorded melting point of the following compound: O=[N+]([O-])c1ccc(CN2CCC(O)CC2)cc1
Key: 114 to 115 °C

Exercise: State the recorded melting point for this entry: Cc1ncc(C#N)c(Nc2cccc3[nH]ccc23)c1I
Key: 192 to 194 °C

Exercise: Quick check: melting point of O=c1n(-c2ccccc2)nc2c3ccccc3nc(Cl)n12 ?
Key: 167 to 168 °C

* * *

The reader will find reported melting point values listed item by item below.

These recorded examples may help you get a feel for the data.
>>> result("CC(=O)OC1CSC(Oc2cccc(-c3ccncc3Cl)c2)C(OC(C)=O)C1OC(C)=O (stereo unspecified)")
"169 to 171 °C"
>>> result("CCC(CO)(CO)NC(=O)Nc1ccccc1CCc1cc(C(C)(C)C)c(O)c(C(C)(C)C)c1")
"145 to 146 °C"
>>> result("CC(=O)Oc1ccc2c(c1)COc1c-2cc(Br)c2cc(OC(C)=O)ccc12")
"192 to 194 °C"
>>> result("CCCCCCCCCCCCCCOc1cccc(C(=O)N(Cc2ccccn2)C(C)=O)c1")
"66 to 67 °C"
>>> result("O=C(N[C@H](Cc1ccc(C(F)(F)F)cc1)[C@@H](O)c1ccc(Cl)nc1)c1ccc(F)c2ccccc12 (racemic)")
"188 to 189 °C"

Switching to the query record.
Exercise: Consider the compound shown here: CCCc1c(C(=O)NCc2ccc(-c3ccc(OCC(=O)O)c(Br)c3)cc2)cnn1-c1ccccc1 What is its recorded melting point?
Key: 204 to 206 °C

* * *

# melting point listing for each entry below

# count of solved cases: 3
>>> result("O=c1[nH]c2ccccc2cc1CN1CC=C(Cc2ccccc2)CC1")
"155 to 158 °C"
>>> result("CCCCCCN(C)C(=O)c1cccc(CN2C(=O)C3(COc4cc5c(cc43)CCO5)c3ccccc32)c1 (stereo not given)")
"73 to 74 °C"
>>> result("CC(C=CCC(C)(C)O)C1CCC2C3=CC=C4CC(O)CCC4(C)C3CCC21C (stereo not given)")
"198 to 200 °C"

Exercise: Quick check: melting point of CC(=O)OCCc1cc2c(s1)CCC1CC(=O)N(c3ccc(C)cc3)N=C21 (stereo not given) ?
Key: 73 to 75 °C

Exercise: Which melting point reading was recorded for the compound FC(=C(Cl)Cl)c1ccc(-c2ccccc2)s1 ?
Key: 67 to 68.5 °C

* * *

reported_property: melting point (°C)

>>> quantitative_result("O=C(CCCCl)Nc1n[nH]c2cc(Cl)ccc12")
220

P = COc1ccc(CNc2ncccc2C(=O)Nc2cccc(C(F)(F)F)c2)cn1
Q = CC(C)Sc1c(N)cccc1C#N
Exercise: Between the entries labelled P and Q , which has a larger melting point value on record? Indicate which entry you chose by stating its label.
Key: P
(P: 185 °C, Q: 82 °C)

* * *

Measured melting point, listed per entry for reference.

Solved cases below.
>>> result("CS(=O)(=O)c1ccc(C(CC2CCCC2)C(=O)O)cc1F (stereo not given)")
"115 to 117 °C"
>>> result("O=C(O)c1ccc(=O)n(CCCNC(=O)c2cccnc2)c1")
"218 to 220 °C"
>>> result("COc1cc2nc(N3CCN(c4ccnc(Cl)n4)CC3)nc(N)c2cc1OC")
"266 °C"

Exercise: Sample O=C(O)CCCCCNC(=O)CCC(=O)Nc1cccc2ccccc12 — what was its melting point?
Key: 229 to 231 °C

Exercise: What value of measured melting point is listed for CC(C(=O)c1ccc(O)cc1)N1CCC(O)(c2ccccc2)CC1 (stereo not given) ?
Key: 95 to 97 °C

Exercise: I have this compound here, O=[N+]([O-])c1ccc(S(=O)(=O)Nc2ccc(O)cc2)cc1 , and I need its recorded melting point.
Key: 197 to 198 °C

Exercise: Endpoint output: melting point of CCCc1ccc(Oc2ccc3c(c2)OC(C(F)(F)F)C(C(=O)O)=C3)cc1 (stereo not given) . Value?
Key: 144 to 146 °C

Exercise: Could you tell me which melting point is on file for O=C(NC(=O)c1ccc(F)cc1Cl)Nc1ccc(Cl)c(Cl)c1 ?
Key: 208 °C

Exercise: I am curious: what melting point value has been reported for Cc1nc(N)nc(N)c1-c1ccc(F)cc1F ?
Key: 291 to 296 °C

Exercise: Entry under review: COC(=O)C(=O)c1nsc(NC(=O)Oc2ccccc2)n1 . Reported melting point?
Key: 74 to 79 °C
